Origin of the recorded values: the CheMixHub viscosity set

Some compounds, each annotated with its measured viscosity.
condition_set: 318.15 K; 101 kPa
Please respond with the number in mPa·s and leave the unit unwritten.

INSERT INTO assay_data (compound, unit_info, observed) VALUES
  ('CC[NH3+].O=[N+]([O-])[O-]', 'mPa·s', 20),
  ('CCCC[N+]1(C)CCCC1.N#C[C-](C#N)C#N', 'mPa·s', 15.44),
  ('CCCC[N+]1(C)CCCCC1.N#C[S-]', 'mPa·s', 264.5);

Consider the compound shown here: "C=C(C)C(=O)OCCCC" What is its recorded viscosity?
0.6639

Consider the compound shown here: CC(CC(C)(C)C)CP(=O)([O-])CC(C)CC(C)(C)C.CCCCCCCC[P+](C)(C)C (configuration not stated) What is its recorded viscosity?
227

Consider the compound shown here: "CCC(=O)c1ccccc1" What is its recorded viscosity?
1.377

Consider the compound shown here: "CC(C)(C)C(=O)O" What is its recorded viscosity?
2.23

---

method_notes: xn = mol fraction of the nth substance listed
condition_set: 298.15 K; 101 kPa; x2 = 0.4
readout_kind: viscosity (mPa·s)
Please respond with the number in mPa·s and leave the unit unwritten.

INSERT INTO assay_data (molecule, readout_kind, unit_info, observed) VALUES
  ('O=CN1CCOCC1 + Cc1cccc(C)c1', 'viscosity', 'mPa·s', 2.34),
  ('O=CN1CCOCC1 + Cc1ccc(C)cc1', 'viscosity', 'mPa·s', 2.311),
  ('O=CN1CCOCC1 + Cc1ccccc1C', 'viscosity', 'mPa·s', 2.87);

In the following, a different molecule is considered.
Consider the molecule shown here: CCCCCC(C)O (centres undefined) + CCCCCCCCCCCC What is its recorded viscosity?
1.74

---

Some molecules, each annotated with its measured viscosity.
method_notes: xn = mol fraction of the nth substance listed
condition_set: 298.15 K; 101 kPa; x1 = 0.4
Please respond with the number in mPa·s and leave the unit unwritten.

Here's what some known entries look like.
INSERT INTO measurements (molecule, observed) VALUES
  ('S=C=S + Cc1ccccc1', 0.462),
  ('S=C=S + ClC(Cl)(Cl)Cl', 0.591);

Consider the molecule shown here: OCCO + CCO What is its recorded viscosity?
3.382

Consider the molecule shown here: OCCO + CO What is its recorded viscosity?
2.562

Consider the molecule shown here: CC(C)(C)C(=O)O + CCCN(CCC)CCC What is its recorded viscosity?
2.795

---

Some molecules, each annotated with its measured viscosity.
method_notes: xn = mol fraction of the nth substance listed
condition_set: 318.15 K; 101 kPa; x1 = 0.6
± gives the uncertainty stated by the source.

INSERT INTO assay_data (molecule, observed) VALUES
  ('OCCO + CO', '2.844 ± 0.077 mPa·s'),
  ('CCCCCCn1cc[n+](C)c1.[Cl-] + CCCCCCn1cc[n+](C)c1.F[B-](F)(F)F', '563.8 ± 170 mPa·s'),
  ('OCCO + CCO', '3.325 ± 0.089 mPa·s');

Consider the molecule shown here: CC(C)(C)C(=O)O + CCCN(CCC)CCC What is its recorded viscosity?
5 ± 0.07 mPa·s

---

method_notes: xn = mol fraction of the nth substance listed
condition_set: 308.15 K; 101.33 kPa; x1 = 0.6
Some compounds, each annotated with its measured viscosity.
Please respond with the number in mPa·s and leave the unit unwritten.

INSERT INTO results (compound, observed) VALUES
  ('NCc1ccccc1 + CCC(C)(C)O', 1.609),
  ('NCc1ccccc1 + CCC(C)CO', 1.595),
  ('NCc1ccccc1 + CCCC(C)O', 1.559);

Consider the compound shown here: NCc1ccccc1 + CCCCCO What is its recorded viscosity?
1.734

Consider the compound shown here: NCc1ccccc1 + CC(C)CCO What is its recorded viscosity?
1.706
